MIC data for Co. liquefaciens follow.
Report only the number, with the unit µg/mL understood.

compound="O=C(CC(O)c1ccc(Cl)c(Cl)c1)Sc1ccc(Cl)cc1 (stereo not shown)" unit_abbrev=µg/mL test_result=12.5
compound="Cc1ccc(C(O)CC(=O)Sc2ccc(Cl)cc2)cc1Cl (stereo not shown)" unit_abbrev=µg/mL test_result=12.5
compound="O=C(CC(O)c1ccccc1)Sc1ccc(Cl)cc1 (stereo not shown)" unit_abbrev=µg/mL test_result=6.25
compound="O=C(CC(O)c1ccc(Cl)cc1)Sc1ccc(Cl)cc1 (stereo not shown)" unit_abbrev=µg/mL test_result=6.25
compound="Cc1ccc(C(O)CC(=O)Sc2ccc(Cl)cc2)cc1 (stereo not shown)" unit_abbrev=µg/mL test_result=12.5

[in] Quick check: MIC on Co. liquefaciens, item O=C(CC(O)c1ccc(Cl)cc1Cl)Sc1ccc(Cl)cc1 (stereo not shown) ?
[out] 3.1

[in] Quick check: MIC on Co. liquefaciens, item CCc1ccc(C(O)CC(=O)Sc2ccc(Cl)cc2)cc1 (stereo not shown) ?
[out] 6.25
